Tested on: PC-3 prostate
Test: NCI tumour cell line growth inhibition, 48 h; in the data active means GI50 below about 0.43 µM; inactive means the rest
The categories you may choose from are class 1 = active, class 0 = inactive

Observe how each entry below is paired with its result.
CN(C)CCCCn1ccc2c1C(=O)c1c(c(O)c3ccccc3c1O)C2=O
class 0
NC(=O)c1ccccc1NC(=O)c1ccccc1Cl
class 0
CCC1(NC(=O)c2cc(F)c(F)c(F)c2F)C(=O)NC(=O)N(C(C)C)C1=O (stereo not drawn)
class 0
C=C1C(OC/C=C/COC2O[C@@H]3O[C@@]4(C)CC[C@H]5[C@H](C)CC[C@@H](C2=C)[C@@]35OO4)O[C@@H]2O[C@@]3(C)CC[C@H]4[C@H](C)CC[C@@H]1[C@@]24OO3 (stereo partly drawn)
class 1
Cn1cnc2c(F)c(Nc3ccc(Br)cc3F)c(C(=O)NOCCO)cc21
class 0
COC(=O)[C@]12CC[C@@H](C)[C@H](C)[C@@H]1C1=CC[C@@H]3[C@@]4(C)C(C=O)=C[C@@](C)(COS(C)(=O)=O)C4[C@H](O)C[C@@]3(C)[C@]1(C)CC2 (stereo partly drawn)
class 0

Ask: For O=c1oc2c3ccc4cnccc4c3[nH]c2c2ccccc12 , which call appears in the assay record?
Reply: class 0

Ask: For COc1c(Cl)ccc2c(-c3nc4cc(Cl)c(F)cc4s3)cc(=O)oc12 , which call appears in the assay record?
Reply: class 0

* * *

Consider the following molecules and their measured TGI readings.
System: SK-OV-3 ovarian
Experiment: NCI tumour cell line growth inhibition, 48 h

Cc1cc2oc(C)c(S(=O)(=O)NC(=O)Nc3ccc(Cl)cc3)c(=O)c2c(=O)o1
> 100 µM
CC(C)C(=O)[O-].CC(C)C(=O)[O-].N.N.N.N.[Co+3].[O-][Cl+3]([O-])([O-])[O-]
> 100 µM
CC(=O)/C=C1\CC(=O)Nc2ccccc2N1
> 100 µM
Cc1cc(O)cc(O)c1C(=O)O[C@]1(C)C(=O)C=C2C=C(/C=C/C(=O)O)OC=C2C1=O
> 100 µM
CC12ON(P(=O)(c3ccccc3)c3ccccc3)C(C)(c3ccccc31)c1ccccc12
> 100 µM

Noted for COc1ccc(N=C2C(=Nc3ccc(OC)cc3)N(c3ccc(N(C)C)cc3)C(=S)N2c2ccc(OC)cc2)cc1 : its TGI reads > 100 µM

Noted for CC(=O)OC(C)(C)CCC(=O)[C@](C)(O)[C@H]1[C@H](O)C[C@@]2(C)[C@@H]3CC=C4C(C)=C(OC5OC(CO)C(O)C(O)C5O)C(=O)C[C@@H]4[C@]3(C)C(=O)C[C@]12C (stereo partly drawn) : its TGI reads > 100 µM

Noted for CCCC(=O)NC(Nc1ccc(F)cc1)(C(F)(F)F)C(F)(F)F : its TGI reads > 100 µM

Noted for N#Cc1ccc(Oc2cccc(Oc3ccccc3)c2)cc1C#N : its TGI reads > 100 µM

Noted for O=C(Nc1ccc(Br)cc1)C(=O)C(C(=O)c1ccccc1F)C1OC(=O)c2ccccc21 (stereo not drawn) : its TGI reads > 100 µM

Noted for CN(Cc1cnc2nc(N)nc(N)c2n1)c1ccc(C(=O)NC(CCC(=O)NC(CC(P(=O)(O)O)P(=O)(O)O)C(=O)O)C(=O)O)cc1 (stereo not drawn) : its TGI reads > 100 µM

Noted for Nc1c(C(=O)N/N=C/c2ccc(-c3cc(Cl)c(Cl)cc3Cl)o2)cnn1-c1ccnc2c(C(F)(F)F)cccc12 : its TGI reads 73 µM

Noted for CCc1ccc2nccc(NCCCN(C)C)c2c1[N+](=O)[O-] : its TGI reads > 100 µM

Noted for N#Cc1nc2c(S(=O)(=O)c3ccccc3)c(N)n(Cc3ccc(Cl)cc3)c2nc1C#N : its TGI reads 29.3 µM

Noted for CN(C)CC1CCC/C(=C\c2ccc(OC(=O)/C=C/c3ccc(Cl)c(Cl)c3)cc2)C1=O (stereo not drawn) : its TGI reads > 100 µM

Noted for O=C(N/N=C(/COc1ccccc1Cl)N=Cc1ccncc1)c1ccncc1 : its TGI reads > 100 µM

Noted for CC(=O)OC1CCC2C(=CCC3C2(C)C(=O)CC2(C)C(C4(C)OC(C(C)C)=CC4=O)C(O)CC32C)C1(C)C (stereo not drawn) : its TGI reads > 100 µM

Noted for CC(=O)OCC12CCC3C4(C)CCCC(C)(C)C4CCC3(C)C1CC(C1=CC(=O)OC1O)O2 (stereo not drawn) : its TGI reads 6.32 µM
